PROCEDURE TEXT: molar heat capacity at constant pressure
REPORTED CONDITIONS: 130 K; 101.33 kPa; Crystal
Numbers after ± are expanded uncertainties.

- MOLECULE: "CCCCCCCCCCC(=O)OC [methyl undecanoate]"
  molar heat capacity at constant pressure: "182.89 ± 0.77 J/K/mol"
- MOLECULE: "CCCCCCCCCCCCCCCCCCCC(=O)OC [methyl eicosanoate]"
  molar heat capacity at constant pressure: "285.48 ± 0.97 J/K/mol"
- MOLECULE: "CCCCCCCCCCCCCCCC(=O)OC [methyl hexadecanoate]"
  molar heat capacity at constant pressure: "238.62 ± 0.88 J/K/mol"
- MOLECULE: "CCCCCCCCCCCCCCCCCC(=O)OC [methyl octadecanoate]"
  molar heat capacity at constant pressure: "261.72 ± 0.92 J/K/mol"
- MOLECULE: "CCCCCCCCCCCCCC(=O)OC [methyl tetradecanoate]"
  molar heat capacity at constant pressure: "214.52 ± 0.83 J/K/mol"
- MOLECULE: "CCCCCCCCC(=O)OC [methyl nonanoate]"
  molar heat capacity at constant pressure: "160.47 ± 0.72 J/K/mol"
- MOLECULE: "CCCCCCCCCCCC(=O)OC [methyl dodecanoate]"
  molar heat capacity at constant pressure: "191.82 ± 0.78 J/K/mol"
- MOLECULE: "CCCCCCCCCCCCCCC(=O)OC [methyl pentadecanoate]"
  molar heat capacity at constant pressure: "228.03 ± 0.86 J/K/mol"
- MOLECULE: "CCCCCCCCCC(=O)OC [methyl decanoate]"
  molar heat capacity at constant pressure: "169.23 ± 0.74 J/K/mol"
- MOLECULE: "CCCCCCCC(=O)OC [methyl octanoate]"
  molar heat capacity at constant pressure: "146.18 ± 0.69 J/K/mol"
- MOLECULE: "CCCCCCCCCCCCCCCCC(=O)OC [methyl heptadecanoate]"
  molar heat capacity at constant pressure: "252.69 ± 1.8 J/K/mol"
- MOLECULE: "CCCCCCCCCCCCC(=O)OC [methyl tridecanoate]"
  molar heat capacity at constant pressure: "205.64 ± 0.81 J/K/mol"
- MOLECULE: "CCCCCCCCCCCCCCCCCCC(=O)OC [methyl nonadecanoate]"
  molar heat capacity at constant pressure: "273.22 ± 0.95 J/K/mol"

* * *

PROCEDURE TEXT: molar heat capacity at constant pressure
REPORTED CONDITIONS: 340 K; 101.33 kPa; Liquid
molar heat capacity at constant pressure values for the molecules below.

- MOLECULE: "CCCCCCCCCCCCCCC(=O)OC [methyl pentadecanoate]"
  UOM: "J/K/mol"
  molar heat capacity at constant pressure: 551.15
- MOLECULE: "CCCCCCCCCCCCCC(=O)OC [methyl tetradecanoate]"
  UOM: "J/K/mol"
  molar heat capacity at constant pressure: 522.03
- MOLECULE: "CCCCCCCCCCCCCCCCCC(=O)OC [methyl octadecanoate]"
  UOM: "J/K/mol"
  molar heat capacity at constant pressure: 655.14
- MOLECULE: "CCCCCCCCC(=O)OC [methyl nonanoate]"
  UOM: "J/K/mol"
  molar heat capacity at constant pressure: 363.82
- MOLECULE: "CCCCCCCC(=O)OC [methyl octanoate]"
  UOM: "J/K/mol"
  molar heat capacity at constant pressure: 332.21
- MOLECULE: "CCCCCCCCCCCCCCCC(=O)OC [methyl hexadecanoate]"
  UOM: "J/K/mol"
  molar heat capacity at constant pressure: 590.14
- MOLECULE: "CCCCCCCCCCCCCCCCC(=O)OC [methyl heptadecanoate]"
  UOM: "J/K/mol"
  molar heat capacity at constant pressure: 615.4
- MOLECULE: "CCCCCCCCCCCC(=O)OC [methyl dodecanoate]"
  UOM: "J/K/mol"
  molar heat capacity at constant pressure: 460.08
- MOLECULE: "CCCCCCCCCCCCCCCCCCC(=O)OC [methyl nonadecanoate]"
  UOM: "J/K/mol"
  molar heat capacity at constant pressure: 684.76
- MOLECULE: "CCCCCCCCCCC(=O)OC [methyl undecanoate]"
  UOM: "J/K/mol"
  molar heat capacity at constant pressure: 426.55
- MOLECULE: "CCCCCCCCCCCCC(=O)OC [methyl tridecanoate]"
  UOM: "J/K/mol"
  molar heat capacity at constant pressure: 491.82
- MOLECULE: "CCCCCCCCCCCCCCCCCCCC(=O)OC [methyl eicosanoate]"
  UOM: "J/K/mol"
  molar heat capacity at constant pressure: 722.28
- MOLECULE: "CCCCCCCCCC(=O)OC [methyl decanoate]"
  UOM: "J/K/mol"
  molar heat capacity at constant pressure: 394.95
